System: Nos2
Assay: qRT-PCR differential gene expression, Nos2
Type: cell-based, murine
Conditions: 10 μM, 12 h, LPS-stimulated RAW 264.7; relative to LPS-stimulated solvent control
reportedEndpoint: downregulation of LPS-induced Nos2 expression (fold)
Your answer is read as fold, so omit the unit and give the number.

Known downregulation of LPS-induced Nos2 expression results, listed for orientation:
molecule | assayedSystem | measuredResult
CC12CCCc3coc(c31)C(=O)c1cc3c(cc12)C(=O)C(CO)=CC3=O (stereo not shown) [Compound 5, 15-hydroxymethylxestoquinone] | Nos2 | 2.6
C[C@@]12CCCc3coc(c31)C(=O)c1cc3c(cc12)C(=O)C=CC3=O | Nos2 | 2.7

Proceeding to the next molecule to report its downregulation of LPS-induced Nos2 expression.
Any idea what its downregulation of LPS-induced Nos2 expression is? The molecule is CC(C)(C)c1cc(O)ccc1O [tBHQ, reference compound]
3.8

----------
Tested on: Il1b
Assay: qRT-PCR differential gene expression, Il1b
Type: cell-based, murine
Conditions: 10 μM, 12 h, LPS-stimulated RAW 264.7; relative to LPS-stimulated solvent control
reportedEndpoint: downregulation of Il1b expression

compound | reportedEndpoint | measuredResult
C[C@@]12CCCc3coc(c31)C(=O)c1cc3c(cc12)C(=O)C=CC3=O [Compound 1, xestoquinone] | downregulation of Il1b expression | 2.6 fold
C[C@@]12CCCc3coc(c31)C(=O)c1cc3c(cc12)C(=O)C1=C(NCCS1(=O)=O)C3=O [Compound 2, adociaquinone B] | downregulation of Il1b expression | 12.1 fold
CC(C)(C)c1cc(O)ccc1O [tBHQ, reference compound] | downregulation of Il1b expression | six
CC12CCCc3coc(c31)C(=O)c1cc3c(cc12)C(=O)C(CO)=CC3=O (stereo not shown) [Compound 5, 15-hydroxymethylxestoquinone] | downregulation of Il1b expression | 2.1 fold

----------
Test system: NO production in LPS-stimulated RAW 264.7 murine macrophage cells
Test: Nitric oxide production assay (Griess) in LPS-stimulated RAW 264.7 cells
Format: cell-based
Settings: LPS pre-treatment 1 h + compound; single experiment in triplicate; read-out: NO Production (IC50)
reportedEndpoint: IC50 (nM)
Field format: number, assumed nM, no unit text.

Can you look up IC50 on NO production in LPS-stimulated RAW 264.7 murine macrophage cells for CC(C)(C)c1cc(O)ccc1O [tBHQ, reference compound] ?
420

----------
The following molecules are listed with their measured IC50 values.
Tested on: NO production in LPS-stimulated RAW 264.7 murine macrophage cells
Assay: Nitric oxide production assay (Griess) in LPS-stimulated RAW 264.7 cells
Type: cell-based
Details: Mus musculus, RAW264.7, 24 h, Compound pre-treatment 1 h + LPS (1 µg/mL), 24 h; mean ± SD of two independent experiments; read-out: NO Production (IC50)
Experimental: The anti-inflammatory activity of the extracts and compounds was assessed according to the procedure of Ratnayake et al. (2013). […] After 24 h of incubation, NO production was assessed by measuring the nitrite concentration using the Griess Reagent System (Promega, Madison, WI, USA) according to the manufacturer’s protocol. […]

Examples from the recorded data:
molecule | measuredResult
C[C@@]12CCCc3coc(c31)C(=O)c1cc3c(cc12)C(=O)C=CC3=O | 1200 nM
C[C@@H]1C[C@H]2[C@@H]3CCC4=CC(=O)C=C[C@]4(C)[C@@]3(F)[C@@H](O)C[C@]2(C)[C@@]1(O)C(=O)CO [dexamethasone, reference compound] | > 32 nM
CC12CCCc3coc(c31)C(=O)c1cc3c(cc12)C(=O)C(CO)=CC3=O (stereo not shown) [Compound 5, 15-hydroxymethylxestoquinone] | 4000 nM

Recorded IC50 for CC12CCCc3coc(c31)C(=O)c1cc3c(cc12)C(=O)C=C(CO)C3=O (stereo not shown) [Compound 4, 14-hydroxymethylxestoquinone] , please?
2500 nM

Origin of measurements: paper PMC9028180
